I'd appreciate it if you could supply pEC50 values for the items below.
- Target: DNA
- Measurement notes: Binding affinity to dsDNA (unknown origin) by fluorescence-based screening assay
Numbers only, as −log10 of the molar value.

Which pEC50 value is on record for "O=c1c2ccccc2n2c(=O)c3ccccc3nc2n1Cc1cccc(C(F)(F)F)c1" ?
6.00

Now for another entry.
Which pEC50 value is on record for "O=c1c2ccccc2n2c(=O)c3ccccc3nc2n1CCCn1c(=O)c2ccccc2n2c(=O)c3ccccc3nc12" ?
5.85
